procedure-summary: Solubility limit noted in the inhibition assays
Assay type: physicochemical
recorded-conditions: E. faecalis cultures, plasma or biological fluid
quantity-kind: solubility (µM)
Numbers only, in µM.

Exercise: Identify solubility associated with the compound C[C@@](Cc1ccc(O)c(O)c1)(NN)C(=O)O
Key: 2000

====

subject-of-test: UniProtKB P0DTQ4
Sequence (P0DTQ4 whole entry): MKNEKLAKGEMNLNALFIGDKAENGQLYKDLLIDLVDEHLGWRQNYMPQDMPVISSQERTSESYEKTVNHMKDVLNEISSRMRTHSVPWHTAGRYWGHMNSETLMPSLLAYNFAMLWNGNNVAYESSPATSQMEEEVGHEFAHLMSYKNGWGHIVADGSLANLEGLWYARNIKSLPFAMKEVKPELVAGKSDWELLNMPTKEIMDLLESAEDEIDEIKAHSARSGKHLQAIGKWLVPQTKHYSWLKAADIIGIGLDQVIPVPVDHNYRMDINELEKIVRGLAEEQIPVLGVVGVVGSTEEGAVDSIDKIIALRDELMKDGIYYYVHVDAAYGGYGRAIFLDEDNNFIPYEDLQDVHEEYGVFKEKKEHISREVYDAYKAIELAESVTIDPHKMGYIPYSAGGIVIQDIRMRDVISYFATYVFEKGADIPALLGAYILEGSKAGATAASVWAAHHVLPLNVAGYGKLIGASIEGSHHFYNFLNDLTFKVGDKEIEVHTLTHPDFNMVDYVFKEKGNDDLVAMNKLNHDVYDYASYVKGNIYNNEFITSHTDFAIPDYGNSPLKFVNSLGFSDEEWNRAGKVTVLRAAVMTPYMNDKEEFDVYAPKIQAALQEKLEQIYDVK
quantity-kind: IC50 (µM)
One number for each entry, in µM.

Exercise: Identify IC50 associated with the compound C[C@@](Cc1ccc(O)c(O)c1)(NN)C(=O)O
Key: 52

====

subject-of-test: H. sapiens AADC (Homo sapiens)
Sequence (P20711 1-480): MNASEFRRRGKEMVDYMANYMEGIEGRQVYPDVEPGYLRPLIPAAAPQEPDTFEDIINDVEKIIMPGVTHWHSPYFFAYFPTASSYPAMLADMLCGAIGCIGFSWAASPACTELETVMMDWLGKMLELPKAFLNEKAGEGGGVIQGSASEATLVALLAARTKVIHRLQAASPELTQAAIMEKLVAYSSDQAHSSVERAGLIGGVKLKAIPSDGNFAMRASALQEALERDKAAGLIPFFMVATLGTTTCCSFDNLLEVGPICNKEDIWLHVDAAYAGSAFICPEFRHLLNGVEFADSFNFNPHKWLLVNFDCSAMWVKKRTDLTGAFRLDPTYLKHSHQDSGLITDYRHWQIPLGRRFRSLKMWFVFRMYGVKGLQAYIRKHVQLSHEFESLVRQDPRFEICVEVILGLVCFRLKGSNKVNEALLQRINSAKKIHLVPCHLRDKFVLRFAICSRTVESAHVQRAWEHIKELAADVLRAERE
quantity-kind: IC50 (nM)
Give bare numbers, in nM.

Exercise: Identify IC50 associated with the molecule C[C@@](Cc1ccc(O)c(O)c1)(NN)C(=O)O [carbidopa]
Key: 210

The reported measurements were obtained from patent US20220226269A1.
